# procedure text: Food effect (high-fat, high-calorie meal) on pharmacokinetics, single 20 mg dose
# Type: in vivo, human
# experimental setup: human, plasma, po, 20 mg, single 20 mg oral dose, fasted; read-out: Cmax, Fasted Geometric Mean (Adjusted)
observation type: Cmax (ng/mL)
Answer with a number only, understood to be in ng/mL.

Looking up CC(C)(C)NC(=O)CN1CCC(CNC(=O)c2cc(F)cc(Cl)c2)CC1.Cl , I found its Cmax recorded as 43.6

====

# procedure text: Food effect (high-fat, high-calorie meal) on pharmacokinetics, single 20 mg dose
# Format: in vivo, human
# experimental setup: human, plasma, po, 20 mg, single 20 mg oral dose, high-fat/high-calorie meal; read-out: AUC∞, Fed Geometric Mean (Adjusted)
observation type: AUC(0-inf) (ng·h/mL)
Write the number in ng·h/mL without appending the unit.

Briefly, AUC(0-inf) measured for CC(C)(C)NC(=O)CN1CCC(CNC(=O)c2cc(F)cc(Cl)c2)CC1.Cl : 1080

====

# procedure text: Food effect (high-fat, high-calorie meal) on pharmacokinetics, single 20 mg dose
# Format: in vivo, human
# experimental setup: human, plasma, po, 20 mg, single 20 mg oral dose, high-fat/high-calorie meal; read-out: AUClast, Fed Geometric Mean (Adjusted)
observation type: AUC(0-t) (ng·h/mL)
The response must be a number in ng·h/mL with no trailing unit.

The recorded AUC(0-t) for CC(C)(C)NC(=O)CN1CCC(CNC(=O)c2cc(F)cc(Cl)c2)CC1.Cl [compound of formula (II)] is 1040

====

# procedure text: Phase 1 single ascending dose (Part A) pharmacokinetics of 20 mg tablet formulation 3
# experimental setup: human, in vivo, oral; single 60 mg; geometric mean; read-out: AUC24
observation type: AUC

Quick note, AUC for CC(C)(C)NC(=O)CN1CCC(CNC(=O)c2cc(F)cc(Cl)c2)CC1 [compound of formula (I)] landed at ~1910 ng·h/mL

====

# procedure text: Food effect (high-fat, high-calorie meal) on pharmacokinetics, single 20 mg dose
# Assay type: in vivo, human
# experimental setup: human, plasma, oral, 20 mg, single 20 mg, fasted
observation type: Tmax (h)
Kindly provide the numeric value in h only, without the unit symbol.

// field: Tmax; key: CC(C)(C)NC(=O)CN1CCC(CNC(=O)c2cc(F)cc(Cl)c2)CC1.Cl [compound of formula (II)] ; value = 4

====

# procedure text: Phase 1 single ascending dose (Part A) pharmacokinetics of 20 mg tablet formulation 3
# experimental setup: human, in vivo, oral; single 60 mg, N = 6; geometric mean
observation type: Cmax

Looking up CC(C)(C)NC(=O)CN1CCC(CNC(=O)c2cc(F)cc(Cl)c2)CC1 [compound of formula (I)] , I found its Cmax recorded as ~130 ng/mL

====

# procedure text: Food effect (high-fat, high-calorie meal) on pharmacokinetics, single 20 mg dose
# Type: in vivo, human
# experimental setup: human, plasma, oral, 20 mg, single 20 mg, high-fat, high-calorie meal
observation type: Tmax
Put down the number, then write its unit next to it.

# compound CC(C)(C)NC(=O)CN1CCC(CNC(=O)c2cc(F)cc(Cl)c2)CC1.Cl ; its Tmax = 5 h

====

# procedure text: clinical
# experimental setup: both, human, plasma, oral, 120 mg
observation type: AUC

The recorded AUC for entry CC(C)(C)NC(=O)CN1CCC(CNC(=O)c2cc(F)cc(Cl)c2)CC1 [compound of formula (I)] equals ≥ 4650 ng·h/mL
